# assay_system: human GPR119 (Homo sapiens, UniProt Q8TDV5)
# Sequence (Q8TDV5 whole entry): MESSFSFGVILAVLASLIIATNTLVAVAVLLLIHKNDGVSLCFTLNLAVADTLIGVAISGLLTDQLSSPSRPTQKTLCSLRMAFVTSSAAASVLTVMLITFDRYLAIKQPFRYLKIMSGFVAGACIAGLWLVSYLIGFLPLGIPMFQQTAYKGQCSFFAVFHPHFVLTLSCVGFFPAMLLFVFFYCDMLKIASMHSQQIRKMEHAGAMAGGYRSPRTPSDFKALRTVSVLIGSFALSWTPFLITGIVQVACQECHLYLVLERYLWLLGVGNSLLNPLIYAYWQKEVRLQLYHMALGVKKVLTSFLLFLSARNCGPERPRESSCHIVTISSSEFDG
# assay_procedure: Functional cellular assay measuring GPR119-mediated cAMP release (HTRF)
# test_settings: HEK-293 cell line stably expressing recombinant human GPR119; cAMP response, 30 minutes at room temperature
pEC50: −log10 of the molar value.
Recorded pEC50 for the following compounds

| compound | pEC50 |
| --- | --- |
| COC(=O)CC1(CC(=O)O)Cc2c(F)cc(N3CC[C@@H](Oc4ccc(OCC5CC5)nc4)C3=O)cc2C1=O (stereo partly drawn) | 6.48 |
| O=C(CC1Cc2c(F)cc(N3CC[C@@H](Oc4ccc(OCC5CC5)nc4)C3=O)cc2C1=O)NCCO (stereo partly drawn) | 6.54 |
| NC(=O)CC1Cc2c(F)cc(N3CC[C@@H](Oc4ccc(OCC5CC5)nc4)C3=O)cc2C1=O (stereo partly drawn) | 7.11 |
| O=C1c2cc(N3CC[C@@H](Oc4ccc(OCC5CC5)nc4)C3=O)cc(F)c2CC1CCO (stereo partly drawn) | 6.63 |
| O=C1CC(CCO)c2ccc(N3CC[C@@H](Oc4ccc(OCC5CC5)nc4)C3=O)cc21 (stereo partly drawn) | 7.10 |
| O=C1CC(CO)c2ccc(N3CC[C@@H](Oc4ccc(OCC5CC5)nc4)C3=O)cc21 (stereo partly drawn) | 6.70 |
| O=C(O)CC1CC(=O)c2cc(N3CC[C@@H](Oc4ccc(OCC5CC5)nc4)C3=O)cc(F)c21 (stereo partly drawn) | 6.66 |
| CNC(=O)CC1Cc2c(F)cc(N3CC[C@@H](Oc4ccc(OCC5CC5)nc4)C3=O)cc2C1=O (stereo partly drawn) | 7.18 |
| COC(=O)CC1Cc2ccc(N3CC[C@@H](Oc4ccc(OCC5CC5)nc4)C3=O)cc2C1=O (stereo partly drawn) | 7.54 |
| CNC(=O)CC1CC(=O)c2cc(N3CC[C@@H](Oc4ccc(OCC5CC5)nc4)C3=O)ccc21 (stereo partly drawn) | 6.73 |
| COC(=O)CC1CC(=O)c2cc(N3CC[C@@H](Oc4ccc(OCC5CC5)nc4)C3=O)ccc21 (stereo partly drawn) | 7.72 |
| COC(=O)C[C@@H]1CC(=O)c2cc(N3CC[C@@H](Oc4ccc(OCC5CC5)nc4)C3=O)ccc21 | 7.72 |
| O=C(O)CC1Cc2c(F)cc(N3CC[C@@H](Oc4ccc(OCC5CC5)nc4)C3=O)cc2C1=O (stereo partly drawn) | 6.44 |
| COC(=O)CC1Cc2ccc(N3CCC(Oc4ccc(OCCC(C)C)cc4)C3=O)cc2C1=O (stereo not drawn) | 6.58 |
| CN(C)C(=O)CC1CC(=O)c2cc(N3CC[C@@H](Oc4ccc(OCC5CC5)nc4)C3=O)ccc21 (stereo partly drawn) | 7.09 |
